Data origin, for the record: patent US20040044037A1

Recorded Ki, one value per entry.
TEST SYSTEM: human 5-HT6 (h5-HT6) receptors (Homo sapiens)
Construct: purchased Receptor Biology, Inc. (Beltsville, Md.); host or cells: HEK-293 cells
Sequence (P50406 whole entry): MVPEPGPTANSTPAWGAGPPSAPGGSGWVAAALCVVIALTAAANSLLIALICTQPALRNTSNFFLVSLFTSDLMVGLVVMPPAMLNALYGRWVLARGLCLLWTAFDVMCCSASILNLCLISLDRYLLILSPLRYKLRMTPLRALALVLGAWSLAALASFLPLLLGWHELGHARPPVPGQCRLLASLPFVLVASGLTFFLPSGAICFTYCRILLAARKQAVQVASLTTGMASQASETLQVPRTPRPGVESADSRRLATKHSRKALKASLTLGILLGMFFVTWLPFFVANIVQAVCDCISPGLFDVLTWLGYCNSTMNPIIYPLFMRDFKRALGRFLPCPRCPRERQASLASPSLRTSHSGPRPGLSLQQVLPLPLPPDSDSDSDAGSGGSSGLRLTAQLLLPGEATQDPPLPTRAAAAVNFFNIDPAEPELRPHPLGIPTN
MEASUREMENT NOTES: Competition radioligand binding, h5-HT6
APPLIED CONDITIONS: [3H]LSD; membranes of HEK-293 cells; read-out: Ki 5-HT6

Consider the worked cases shown below.
| MOLECULE | METRIC NAME | VALUE |
| --- | --- | --- |
| COc1ccccc1N1CCN(C(=O)NC(=N)NCc2cccc3ccccc23)CC1 | Ki | > 10000 nM |
| CC(C)(CO)CNC(=O)NC(=N)NCc1cccc2ccccc12 | Ki | 2620 nM |
| CN1CCCC1CCNC(=O)NC(=N)NCc1cccc2ccccc12 (centres unmarked) | Ki | 3050 nM |
| CC(=O)NC(=N)NCc1cccc2ccccc12 | Ki | 2720 nM |
| N=C(NCc1cccc2ccccc12)NC(=O)N1CCC(Cc2ccccc2)CC1 | Ki | > 10000 nM |
| N=C(NCc1cccc2ccccc12)NC(=O)NCC1CCN(Cc2ccc(F)cc2F)CC1 | Ki | 2860 nM |
| N=C(NCc1cccc2ccccc12)NC(=O)NCC1CCN(Cc2ccc(F)cc2)CC1 | Ki | 3350 nM |
| COc1ccc(CN2CCC(CNC(=O)NC(=N)NCc3cccc4ccccc34)CC2)cc1C | Ki | 910 nM |

Ask: GET /values?readout=Ki&item= N=C(NCc1cccc2ccccc12)NC(=O)NCCCO
Result: 480 nM

Ask: Now give it for N=C(NCc1cccc2ccccc12)NC(=O)N[C@@H](CO)c1ccccc1 too.
Result: 930 nM

Ask: Now give it for N=C(NCc1cccc2ccccc12)NC(=O)NC1CCc2ccccc21 (centres unmarked) too.
Result: 900 nM
